The reported numbers originate from patent US20240417458A1.

kon overview
Target: T1, soluble rat RGMa (rat, UniProt D4A188 48-421)
T1 construct: Soluble antigen in BIAcore
T1 sequence: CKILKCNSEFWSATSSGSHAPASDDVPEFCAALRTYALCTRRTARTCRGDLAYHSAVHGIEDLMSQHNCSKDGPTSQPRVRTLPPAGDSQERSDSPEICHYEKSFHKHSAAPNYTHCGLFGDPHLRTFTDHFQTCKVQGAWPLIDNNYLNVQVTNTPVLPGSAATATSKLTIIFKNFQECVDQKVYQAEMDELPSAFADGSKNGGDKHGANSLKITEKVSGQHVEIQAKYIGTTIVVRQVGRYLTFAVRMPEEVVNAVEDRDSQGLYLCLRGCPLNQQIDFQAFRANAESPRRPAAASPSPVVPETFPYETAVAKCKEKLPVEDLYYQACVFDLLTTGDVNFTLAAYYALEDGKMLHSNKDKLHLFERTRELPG
Experiment: SPR (BIAcore);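 note: binding kinetics and affinity of anti-HJV antibodies toward soluble rat RGMa, determined by SPR on a BIAcore instrument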
# unit: M⁻¹ s⁻¹ | format: bare number

Q: Query (binder): hHA-003 (antibody, human IgG1, kappa, L234A L235A, V domains shown, hIgG1 L234A, L235A, kappa) VH: EVQLVESGGGLVQPGGSLRLSCAASGFTFSNYGMNWIRQAPGKGLEWIGMIYYDSSEKHYADSVKGRFTISRDNSKNTLYLQMNSLRAEDTAVYYCAKGTTPDYWGQGTMVTVSS VL: DVVLTQSPLSLPVTLGQPASISCRSSQSLETSDGDTFLEWFQQRPGQSPRLLIYEVSNRFSGVPDRFSGSGSGTDFTLKISRVEAEDVGVYYCFQVTHDPVTFGQGTKLEIKR ; field requested: kon
Result: 870000

Q: Query (binder): hHA-002 (antibody, human IgG1, kappa, L234A L235A, V domains shown, hIgG1 L234A, L235A, kappa) VH: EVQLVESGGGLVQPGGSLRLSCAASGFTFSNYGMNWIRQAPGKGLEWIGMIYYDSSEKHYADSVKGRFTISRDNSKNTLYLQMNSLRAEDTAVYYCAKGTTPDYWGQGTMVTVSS VL: DVVLTQSPLSLPVTLGQPASISCRSSQSLETSDGDTFLEWFQQRPGQSPRLLIYEVSSRFSGVPDRFSGSGSGTDFTLKISRVEAEDVGVYYCMQVTHDPLTFGQGTKLEIKR ; field requested: kon
Result: 1e+06
